Would you kindly list inhibition for each of these compounds?
biological target: Solute carrier family 2, facilitated glucose transporter member 1 (Homo sapiens); experiment: ST_JUDE_LEISH: Cytotoxicity at 2uM final concentration against transgenic Leishmania Mexicana promastigotes LmGLUT1 that are glucose transport deficient and complemented with the human glucose transporter GLUT1. Activity is measured by DNA content using SYBR green in vitro; assay type: functional
Report as: number unit

Reported inhibition for O=C(CCc1c[nH]cn1)Nc1ccc(-c2ccc(-c3nc4cc(F)ccc4[nH]3)cc2)cc1 : what is it? 1.4%

Reported inhibition for Cc1cccc(-n2c(=O)c3c4c(sc3n3c(SCCC(C)C)nnc23)CCCC4)c1 : what is it? 0.75%

Reported inhibition for c1ccc(Oc2ccc(Nc3nc(NCCc4c[nH]cn4)nc(NC4CCCC4)n3)cc2)cc1 : what is it? 5.3%

Reported inhibition for CN1CCCC1CCNc1ncc2c(-c3ccc(NC(=O)Nc4cc(C(F)(F)F)ccc4F)c(F)c3)nn(C)c2n1 (centres undefined) : what is it? -1.71%

Reported inhibition for CCCN(CCC)C(=O)c1cc(C(=O)N[C@@H](Cc2ccccc2)[C@H](O)CNC(C)(C)c2cccc(OC)c2)cc(N2CCCCS2(=O)=O)c1 : what is it? 1.96%

Reported inhibition for Cc1cc(N2CCN(C)CC2)nc2ccc(NC(=O)c3cccc(N(C)C)c3)cc12 : what is it? 7.09%

Reported inhibition for Cc1cc(O)c(-c2ccc(S(=O)(=O)c3ccc(Cl)cc3)cc2)c(C)n1 : what is it? 0.09%

Reported inhibition for COc1ccc(Br)cc1/C=C/C(=O)Nc1ccc(C2CCCN(C)C2)cc1 (centres undefined) : what is it? 3.89%

Reported inhibition for COc1ccc(CN(C)CCOc2ccc(NC(=O)c3cccc4c(=O)cc(-c5ccccc5)[nH]c34)cc2)cc1OC : what is it? 0.9%
